molecular target: UniProt:O60885; assay: Live cell kinetic HiBiT degradation assay, HiBiT-BRD4 HEK293 cells (parental, CRBN KO, VHL KO); type: cell-based; conditions: HiBiT-BRD4 CRISPR knock-in HEK293 cells, live cell kinetic degradation, 24 h; read-out: Dmax 50 BRD4
measuredProperty: EC50 (nM)
Write the number in nM without appending the unit.

Worked set:
1) Cc1ncsc1-c1ccc(CNC(=O)[C@@H]2C[C@@H](O)CN2C(=O)[C@@H](NC(=O)COCC(C)(COCCOCCOCCNc2cc3c(cc2F)C(=O)N(C2CCC(=O)NC2=O)C3=O)COCCOCCOC(=O)C[C@@H]2N=C(c3ccc(Cl)cc3)c3c(sc(C)c3C)-n3c(C)nnc32)C(C)(C)C)cc1 (mixture of isomers) [AB3065 (28)] :: 2.9
2) Cc1ncsc1-c1ccc(CNC(=O)[C@@H]2C[C@@H](O)CN2C(=O)[C@@H](NC(=O)COCC(C)(COCCOCCOCCNc2cccc3c2C(=O)N(C2CCC(=O)NC2=O)C3=O)COCCOCCOC(=O)C[C@@H]2N=C(c3ccc(Cl)cc3)c3c(sc(C)c3C)-n3c(C)nnc32)C(C)(C)C)cc1 (mixture of isomers) [AB3064 (25)] :: 31

Kindly review the next compound as well.
IN: Which EC50 value is on record for Cc1ncsc1-c1ccc(CNC(=O)[C@@H]2C[C@@H](O)CN2C(=O)[C@@H](NC(=O)COCC(C)(COCCOCCNc2cc3c(cc2F)C(=O)N(C2CCC(=O)NC2=O)C3=O)COCCOCCOCCOC(=O)C[C@@H]2N=C(c3ccc(Cl)cc3)c3c(sc(C)c3C)-n3c(C)nnc32)C(C)(C)C)cc1 (mixture of isomers) [AB3126 (29)] ?
OUT: 4
